test system: L. major promastigotes; assay: Leishmania major promastigote assay (MTT, 72 h); type: cell-based; settings: Leishmania major, 72 h, IC50 ± SD, MTT
The entries below are paired with their reported IC50.

Field: example entries. Status: answers known.
CC(C)c1cccc(C(C)C/C=N/NC(=O)c2ccccc2F)c1 (stereo not drawn); > 61.3 µM
CN(C)c1ccc(/C=C/C=N/NC(=O)c2cccc(O)c2)cc1; > 42.7 µM
CC(C)c1cccc(C(C)C/C=N/NC(=O)c2ccncc2)c1 (stereo not drawn); 54.6 µM
CC(C)c1cccc(C(C)CC=NNC(=O)c2cc3ccccc3cc2O)c1 (stereo not drawn); < 10 µM

Now look at this one.
Q: # return recorded IC50 for input O=C(N/N=C/C=C/c1ccccc1)c1ccncc1
Result: 51.3 µM
